# SYSTEM UNDER TEST: T1, Activin B (Homo sapiens (Human), UniProt P09529 293-407)
# T1 construct: also called Mature Activin B; mature Activin B
# T1 sequence: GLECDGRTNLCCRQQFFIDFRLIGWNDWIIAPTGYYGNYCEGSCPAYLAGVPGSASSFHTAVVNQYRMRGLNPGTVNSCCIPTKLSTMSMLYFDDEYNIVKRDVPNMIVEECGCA
# PROCEDURE TEXT: ELISA dose-response, coated antigen
EC50 values, listed per item
REPORTED PROPERTY: EC50

>>> reported_result("AB843 (antibody, IgG1, V domains shown) VH: EVQLVQSGAEVKKPGASVKVSCKASGDTSSHSHIHWVRQAPGQGLEWMGWINPRSGATNYAQKLQGRGTMTTDPSTSTAYMELRSLRSDDTAVYYCARDRGGRTNGVGAFDIWGQGTMVTVSS VL: ESALTQPASVSGSPGQSITISCTGTSGDIGRYNYVSWYQQHPGKAPKLMIYEDIERPSGVSNRFSGSKSGNTASLTISGLQAEDEADYYCQVWDATLDLVFGGGTKLTVL")
"0.03 nM"
>>> reported_result("AB854 (antibody, IgG1, V domains shown, also called clone 854) VH: EVQLVQSGAEVKKPGASVKVSCKASGYTFPSHYISWVRQAPGQGLEWMGGMNPITGHTIYAQKLQGRGTMTTDPSTSTAYMELRSLRSDDTAVYYCARDMRYDILPGRSYYYGMDVWGQGTTVTVSS VL: ESALTQPASVSGSPGQSITISCTGTTGSIASNYVSWYQQHPGKAPKLMIYDTTNRPPGVSNRFSGSKSGNTASLTISGLQAEDEADYYCQSTERGRSDVIFGGGTKLTVL")
"0.27 nM"
>>> reported_result("AB731 (antibody, IgG1, V domains shown, also called clone 731) VH: QVQLQQPGTELVKPGASVKLSCKASGYTFTSYWMHWVKQRPGQGLEWIGNINPSNGGTNYNEKFKSKATLTVDKSSSTAYMQLSSLTSEDSAVYYCSITTVVAYWYFDVWGTGTTVTVSS VL: ENVLTQSPAIMSASPGEKVTISCSASSSVSYMYWYQQKPGSSPKPWIFRTYNLASGVPARFSGSGSGTSYSLTISNMEAEDAATYYCQQRSSYPWTFGGGTKLEIK")
"0.49 nM"
